meta.source: patent US4705900A

system: Blattella germanica; test: mortality of cockroach nymphs (BG), residual test; type: in vivo, Blattella germanica (cockroach nymphs); conditions: Blattella germanica, 72 h, 500 ppm, plastic pot, 3 days, read-out: grading of mortality, BG
property.name: mortality at 500 ppm

Here is how some compounds turned out for mortality at 500 ppm.
* CC(C)(C=Cc1ccc(F)cc1)COCc1cccc(Oc2ccccc2)c1 [Compound 11] | < 50%
* CC(C)(/C=C/c1ccc(C(F)(F)F)cc1)COCc1cccc(Oc2ccccc2)c1 [Compound 12] | 50 to 79%
* CC(C)(/C=C\c1ccc(Cl)cc1)COCc1cccc(Oc2ccccc2)c1 [Compound 2] | < 50%
* CC(C)(C=Cc1ccc(F)c(F)c1)COCc1cccc(Oc2ccccc2)c1 [Compound 18] | < 50%
* Clc1ccc(/C=C/C2(COCc3cccc(Oc4ccccc4)c3)CC2)cc1 [Compound 22] | < 50%
* CCC(C)(/C=C\c1ccc(Cl)cc1)COCc1cccc(Oc2ccccc2)c1 (stereo not shown) [Compound 26] | < 50%

## Input mortality at 500 ppm lookup needed for CC(C)(/C=C/c1ccc(F)cc1)COCc1ccc(F)c(Oc2ccccc2)c1 [Compound 6] , thanks.
## Output 80 to 100%

---

Tested on: Myzus persicae
Assay: mortality of aphids (MP), contact test
Assay type: in vivo, Myzus persicae (aphids)
Settings: Myzus persicae, 48 h, 500 ppm, leaf, 2 days, read-out: grading of mortality, MP
Procedure: The activity of the Product was determined using a variety of insect pests. The Product was used in the form of liquid preparations containing 500 or 100 parts per million (ppm) by weight of the Product. The preparations were made by dissolving the Product in acetone and diluting the solutions with water containing 0.01% by weight of a wetting agent sold under the trade name "LISSAPOL" NX until the liquid preparations contained the required concentration of the Product. […]
property.name: mortality at 500 ppm

Here is how some compounds turned out for mortality at 500 ppm.
• CCC(C)(/C=C\c1ccc(Cl)cc1)COCc1cccc(Oc2ccccc2)c1 (stereo not drawn) [Compound 26] = < 50%
• CCOc1ccc(/C=C\C(C)(C)COCc2cccc(Oc3ccccc3)c2)cc1 [Compound 3] = < 50%

## Input mortality at 500 ppm lookup needed for CC(C)(/C=C/c1ccc(C(F)(F)F)cc1)COCc1cccc(Oc2ccccc2)c1 [Compound 12] , thanks.
## Output 50 to 79%

## Input mortality at 500 ppm lookup needed for CC(C)(CCc1ccc(Cl)cc1)COCc1cccc(Oc2ccccc2)c1 [Compound 34] , thanks.
## Output < 50%

## Input mortality at 500 ppm lookup needed for Clc1ccc(/C=C\C2(COCc3cccc(Oc4ccccc4)c3)CC2)cc1 [Compound 23] , thanks.
## Output < 50%

## Input mortality at 500 ppm lookup needed for CCOc1ccc(/C=C/C(C)(C)COCc2cccc(Oc3ccccc3)c2)cc1 [Compound 4] , thanks.
## Output < 50%

---

test system: Myzus persicae; test: mortality of aphids (MP), contact test; format: in vivo, Myzus persicae (aphids); conditions: Myzus persicae, 48 h, 500 ppm, leaf, 2 days, read-out: grading of mortality, MP
Property: mortality at 500 ppm; scope: individual molecules

Here is how some molecules turned out for mortality at 500 ppm.
* CCC(C)(/C=C/c1ccc(Cl)cc1)COCc1cccc(Oc2ccccc2)c1 (stereo not drawn) | 50 to 79%
* COc1ccc(/C=C/C(C)(C)COCc2ccc(F)c(Oc3ccccc3)c2)cc1 | 50 to 79%
* Clc1ccc(/C=C/C2(COCc3cccc(Oc4ccccc4)c3)CC2)cc1 | < 50%
* CC(C)(/C=C/c1ccc(F)cc1)COCc1ccc(F)c(Oc2ccccc2)c1 | 80 to 100%
* Cc1ccc(C=CC(C)(C)COCc2cccc(Oc3ccccc3)c2)cc1 | < 50%

## Input mortality at 500 ppm lookup needed for "CCOc1ccc(/C=C/C(C)(C)COCc2ccc(F)c(Oc3ccccc3)c2)cc1" , thanks.
## Output 50 to 79%

## Input mortality at 500 ppm lookup needed for "Fc1ccc(/C=C\C2(COCc3cccc(Oc4ccccc4)c3)CC2)cc1" , thanks.
## Output 50 to 79%

## Input mortality at 500 ppm lookup needed for "CC(C)(C=Cc1ccccc1F)COCc1cccc(Oc2ccccc2)c1" , thanks.
## Output < 50%
